Target: 5-hydroxytryptamine receptor 1A (Rattus norvegicus, UniProt P19327)
Sequence (P19327 whole entry): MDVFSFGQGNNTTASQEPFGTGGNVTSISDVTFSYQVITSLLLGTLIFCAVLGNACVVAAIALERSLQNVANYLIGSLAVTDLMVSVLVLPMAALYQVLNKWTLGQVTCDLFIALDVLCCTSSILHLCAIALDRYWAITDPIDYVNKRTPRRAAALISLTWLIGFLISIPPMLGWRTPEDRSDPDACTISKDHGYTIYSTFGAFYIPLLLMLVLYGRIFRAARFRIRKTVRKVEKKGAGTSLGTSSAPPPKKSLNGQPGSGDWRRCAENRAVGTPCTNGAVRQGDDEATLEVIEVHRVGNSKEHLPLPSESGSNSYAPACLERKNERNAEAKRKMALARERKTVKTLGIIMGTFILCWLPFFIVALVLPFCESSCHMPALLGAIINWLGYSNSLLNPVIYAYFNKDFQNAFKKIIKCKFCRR
measurementKind: Ki (nM)

- smilesStr: "c1ccc(N2CCN(Cc3cn(-c4ccccn4)c4ccccc34)CC2)cc1"
  assaySystem: "5-hydroxytryptamine receptor 1A (Rattus norvegicus, UniProt P19327)"
  Ki, nM: 95
- smilesStr: "Cc1ccccc1-n1cc(CN2CCN(C)CC2)c2ccccc21"
  assaySystem: "5-hydroxytryptamine receptor 1A (Rattus norvegicus, UniProt P19327)"
  Ki, nM: 2910
- smilesStr: "Cc1cccc(-n2cc(CN3CCN(c4ccccc4)CC3)c3ccccc32)c1C"
  assaySystem: "5-hydroxytryptamine receptor 1A (Rattus norvegicus, UniProt P19327)"
  Ki, nM: 324
- smilesStr: "Cc1ccccc1-n1cc(CCN(C)C)c2ccccc21"
  assaySystem: "5-hydroxytryptamine receptor 1A (Rattus norvegicus, UniProt P19327)"
  Ki, nM: 59
- smilesStr: "Cc1ccccc1-n1cc(CN2CC=C(c3ccccc3)CC2)c2ccccc21"
  assaySystem: "5-hydroxytryptamine receptor 1A (Rattus norvegicus, UniProt P19327)"
  Ki, nM: 178

1: Oc1ccccc1N1CCN(Cc2cn(-c3cccc4ccccc34)c3ccccc23)CC1
2: Cc1ccccc1-n1cc(CN2CCN(c3ccccc3)CC2)c2ccccc21
Which numeric Ki is bigger, that of 1 or that of 2 ? Field: selected label. Fill in the label of the entry you choose.
2
(2: 95 nM, 1: 57 nM)

Data credit: ChEMBL document CHEMBL3120113
